These data points were gathered from patent US7943639B2.

target: human 5-HT6 receptor (Homo sapiens); construct: expressed in transfected cells; host or cells: HEK-293 cells under G-418 selection; membranes were prepared from them; assay: 5-HT6 binding assay ([3H]-LSD, SPA, membranes of transfected HEK293 cells)
Structures can show the parent of a compound that is named as a salt.
READOUT: Ki (nM)
Only the number, expressed in nM, is required.

Data request: Entry O=S(=O)(c1ccccc1)n1ccc2c(N3CCNCC3)nccc21 [Example 131, hydrochloride] : reported Ki = ?
Data returned: 5

* * *

target: human 5-HT6 receptor (Homo sapiens, UniProt P50406); construct: expressed in transfected cells; host or cells: HEK-293 cells under G-418 selection; membranes were prepared from them; experiment: 5-HT6 binding assay ([3H]-LSD, SPA, membranes of transfected HEK293 cells); details: In vitro binding at the human 5-HT6 receptor, [3H]-LSD as labeled ligand; read-out: Ki (nM) human 5-HT6
Sequence (P50406 whole entry): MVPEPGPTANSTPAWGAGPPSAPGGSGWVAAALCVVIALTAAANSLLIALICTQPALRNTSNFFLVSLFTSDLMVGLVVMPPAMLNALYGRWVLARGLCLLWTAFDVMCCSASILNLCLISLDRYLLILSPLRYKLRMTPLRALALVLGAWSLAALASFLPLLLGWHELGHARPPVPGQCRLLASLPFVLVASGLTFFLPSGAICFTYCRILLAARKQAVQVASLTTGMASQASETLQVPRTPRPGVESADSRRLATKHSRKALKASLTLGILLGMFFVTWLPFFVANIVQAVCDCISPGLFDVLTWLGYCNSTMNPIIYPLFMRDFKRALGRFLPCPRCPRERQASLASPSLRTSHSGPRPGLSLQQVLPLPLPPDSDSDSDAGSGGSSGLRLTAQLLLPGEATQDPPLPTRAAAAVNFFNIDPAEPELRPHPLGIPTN
Structures can show the parent of a compound that is named as a salt.
Readings of Ki for the listed molecules
Enter your answer as a number in nM; do not include the unit.

>>> print(df.to_string())
                                   molecule  recorded_number
0  O=S(=O)(NCCc1cccs1)c1cc2c(N3CCNCC3)nccc2s1 [Example 68, hydrochloride]               13

Data request: Lab note: need Ki for O=S(=O)(c1cc2c(N3CCCNCC3)nccc2s1)c1cccc2ccccc12 [Example 85, hydrochloride] on human 5-HT6 receptor (Homo sapiens, UniProt P50406), anyone have it?
Data returned: 32

Data request: Given the entry Cl.O=S(=O)(Nc1ccc(O[C@@H]2CCNC2)c2ccccc12)c1ccc(Cl)cc1 [Example 40, hydrochloride] , what Ki was observed with human 5-HT6 receptor (Homo sapiens, UniProt P50406)?
Data returned: 7.5
